# Test protocol: SMARCA2 (BRM) function activators, primary screen, cell-based, luminescence, high throughput (AID 652017);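 further: 0% = vehicle wells and 100% = reference activator wells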
# Test conditions: MG213 cells, MMTV-luciferase reporter, dexamethasone, overnight; at 9.1 µM
The whole screen tested about 370,000 compounds, of which about 3,800 (1%) were called active. No stated cut-off is given here; in the data, active means activation above about 7.8%; inactive means the rest. What follows is part of a selection rich in actives, with near analogues and random picks from the rest.
Give your call using only these classes: active, inactive

Worked cases, answers included:
>  <Compound>
O=C(CCC(=O)c1cccs1)NC1CCCCCC1

>  <Cat>
inactive

$$$$
>  <Compound>
CCOc1cccc2c1OC1(CCCCC1)N1N=C(c3cccnc3)CC21 (stereo unspecified)

>  <Cat>
active

$$$$
>  <Compound>
COc1ccccc1OCC(=O)OCc1cc(-c2ccco2)on1

>  <Cat>
inactive

$$$$
>  <Compound>
COc1ccccc1OCC(=O)O/N=C(\N)c1ccccn1

>  <Cat>
active

$$$$
>  <Compound>
Cc1noc(C)c1/C=N/Nc1ccc2ccccc2n1

>  <Cat>
active

$$$$

# evaluate next
Outcome logged for "O=C(CCCCCn1c(=S)[nH]c2ccsc2c1=O)NC1CCCCC1" in this assay: active

---

# Test protocol: SMARCA2 (BRM) function activators, primary screen, cell-based, luminescence, high throughput (AID 652017);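 further: 0% = vehicle wells and 100% = reference activator wells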
# Test conditions: MG213 cells, MMTV-luciferase reporter, dexamethasone, overnight; at 9.1 µM; hits give high values
Hit rate of the full screen: of about 370,000 compounds, about 3,800 (1%) were called active. Shown is part of a subset that was picked to be rich in actives.
Record form. Attribute: activation. Fill in for each entry.
Numbers only, in %.

Examples with answers:
>  <Compound>
Cc1cccc(C)c1NC(=S)N(Cc1cccnc1)Cc1ccccc1Cl

>  <Unit symbol>
%

>  <Test result>
-5.44

$$$$
>  <Compound>
CC(C)(C)C(=O)CSc1nc2ccccc2o1

>  <Unit symbol>
%

>  <Test result>
8.4

$$$$
>  <Compound>
COc1ccc(C#CCNCc2ccc(OC)cc2OC)cc1

>  <Unit symbol>
%

>  <Test result>
-1.96

$$$$
>  <Compound>
Nn1c(SCC(=O)Nc2ccc(S(N)(=O)=O)cc2)nnc1-c1n[nH]c2c1CCC2

>  <Unit symbol>
%

>  <Test result>
0.23

$$$$
>  <Compound>
COc1ccc(C2C(C(C)=O)=C(O)C(=O)N2c2nccs2)cc1 (centres undefined)

>  <Unit symbol>
%

>  <Test result>
1.1

$$$$
>  <Compound>
O=C(O)CN1c2cccc3cccc(c23)S1(=O)=O

>  <Unit symbol>
%

>  <Test result>
-0.74

$$$$
>  <Compound>
S=C(NCCC1=CCCCC1)Nc1ccccc1

>  <Unit symbol>
%

>  <Test result>
2.03

$$$$
>  <Compound>
COC(=O)Cc1ccc(OC(=O)C2CCN(S(=O)(=O)c3ccc(OC)c(OC)c3)CC2)cc1

>  <Unit symbol>
%

>  <Test result>
-1.69

$$$$

Value sought for every listed compound: activation.
1. COc1ccc(C(=O)Nc2ccnn2C2CCN(Cc3ccncc3)CC2)cc1
2. O=S(=O)(c1ccccc1)N1CCC(c2nc3ccccc3o2)CC1
3. COc1ccc(-n2c(SC)nc(O)cc2=O)cc1

1. -1.75
2. -4.23
3. -1.4

Value sought for every listed compound: activation.
1. CCCCCCN1CCS(=O)(=O)N(Cc2ccc(C(F)(F)F)cc2)C(C(=O)OC)C1 (centres undefined)
2. Cc1ccsc1C(=O)NC1CCCCC1C (centres undefined)

1: -1.27; 2: -1.24

Value sought for every listed compound: activation.
1. C[C@H](NC(=O)c1ccccc1Cl)C(=O)OCCOc1cccc(Cl)c1
2. O=C(CSc1nc2c(c(=O)[nH]1)CCCC2)N1CCCCC1
3. CCOC(=O)[C@]12CCCC=C1N(Cc1ccc(OC)cc1)C(=O)[C@@H]2CC(=O)NCc1cccs1
4. Cc1ccc(/C=N/NC(=O)c2sccc2OCc2ccc(F)cc2)cc1

1: -0.67; 2: -4.24; 3: -2.09; 4: 3.74

---

Record form. Attribute: activation. Fill in for each entry.
# Test protocol: SMARCA2 (BRM) function activators, primary screen, cell-based, luminescence, high throughput (AID 652017);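 further: 0% = vehicle wells and 100% = reference activator wells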
# Test conditions: MG213 cells, MMTV-luciferase reporter, dexamethasone, overnight; at 9.1 µM; hits give high values
About 3,800 (1%) of roughly 370,000 compounds were called active. The entries come from a sample that favours actives as a whole.
Answers are plain numbers, in %.

Value sought for every listed molecule: activation.
1. CCCOc1ccc(-c2nc(N)n[nH]2)cc1
2. Cc1ccccc1NC(=O)COC(=O)c1ccc(Sc2ncn[nH]2)c([N+](=O)[O-])c1
3. O=C(OC12CC3CC(CC(C3)C1)C2)c1ccc(NCc2cc(O)ccc2O)cc1
4. COC(=O)c1ccc(NCc2cc(O)ccc2O)cc1
5. COC(=O)c1sc(-c2ccc(C(C)(C)C)cc2)cc1NC(=O)/C=C/C(=O)O
6. Nc1nc(SCCOc2ccccc2)n[nH]1

[8.06, -3.59, -10.6, 8.39, 9.14, -0.38]

"CCS(=O)(=O)Nc1cc(C(=O)OC)ccc1C(=O)OC" has a reported activation of -0.18

---

# Test protocol: SMARCA2 (BRM) function activators, primary screen, cell-based, luminescence, high throughput (AID 652017);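 further: 0% = vehicle wells and 100% = reference activator wells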
# Test conditions: MG213 cells, MMTV-luciferase reporter, dexamethasone, overnight; at 9.1 µM; hits give high values
Out of some 370,000 compounds screened, about 3,800 (1%) were called active. For the sample, actives were picked, then their nearest neighbours and some compounds at random.
Recorded endpoint: activation (%)
Numbers only, in %.

Examples with answers:
>  <Molecule>
Cc1ccc(NC(=O)C(=O)NCc2ccco2)c(C)c1

>  <Recorded endpoint>
activation

>  <Test result>
9.32

$$$$
>  <Molecule>
C=CCN1C(C(=O)OC)CN(Cc2cn(Cc3ccccc3)nn2)CCS1(=O)=O (stereo unspecified)

>  <Recorded endpoint>
activation

>  <Test result>
1.74

$$$$
>  <Molecule>
COc1ccc(C)cc1NC(=O)c1cc(-c2ccccc2)nc2c1cnn2C(C)C

>  <Recorded endpoint>
activation

>  <Test result>
-4.75

$$$$
>  <Molecule>
CN(C)/C=C/C(=O)c1cnc2sccn2c1=O

>  <Recorded endpoint>
activation

>  <Test result>
-3.44

$$$$
>  <Molecule>
Cc1ccc(SCC(=O)NC(=O)NCc2ccco2)c(C)c1

>  <Recorded endpoint>
activation

>  <Test result>
-0.59

$$$$
>  <Molecule>
Cc1ccc(/C=N/NC(=O)COc2ccccc2-c2ccccc2)cc1

>  <Recorded endpoint>
activation

>  <Test result>
-0.77

$$$$
>  <Molecule>
Clc1ccc(C(Cn2ccnc2)OCc2ccsc2Cl)c(Cl)c1 (stereo unspecified)

>  <Recorded endpoint>
activation

>  <Test result>
-7.85

$$$$
>  <Molecule>
COc1ccc(CN(CCN2CCOCC2)C(=O)c2ccc(C)cc2)cc1OC

>  <Recorded endpoint>
activation

>  <Test result>
-0.94

$$$$
>  <Molecule>
CC(=O)C1(C(=O)Nc2nccs2)CC(c2ccccc2C(F)(F)F)=NO1 (stereo unspecified)

>  <Recorded endpoint>
activation

>  <Test result>
-1.46

$$$$
>  <Molecule>
COc1ccc(/C=N/NC(=O)c2cc(-c3cccc(C)c3)nc3ccccc23)cc1O

>  <Recorded endpoint>
activation

>  <Test result>
8.84

$$$$

"O=C(NCc1ccncc1)C(=O)NCc1ccco1" has a reported activation of -0.15

---

# Test protocol: SMARCA2 (BRM) function activators, primary screen, cell-based, luminescence, high throughput (AID 652017);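 further: 0% = vehicle wells and 100% = reference activator wells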
# Test conditions: MG213 cells, MMTV-luciferase reporter, dexamethasone, overnight; at 9.1 µM
In all, about 370,000 compounds went through this assay and about 3,800 (1%) were called active. Cut-off read from the data, not from the text of the source: active = activation above about 7.8%; inactive = the rest. Many of the other results were omitted from the sample, so actives are more common in it than they were.
Give your call using only these classes: active, inactive

Worked cases, answers included:
>  <Compound>
CN(CCO)c1cccc2c1S(=O)(=O)N(Cc1cn(Cc3ccc(C(F)(F)F)cc3)nn1)Cc1ccccc1O2

>  <Cat>
inactive

$$$$
>  <Compound>
CC(C)(C)NC(=O)C(CCc1ccccc1)n1c(=O)c(-c2ccccc2)nc2ccccc21 (stereo not given)

>  <Cat>
active

$$$$
>  <Compound>
COc1nc(N=C(N)N)nc2c(C)cccc12

>  <Cat>
inactive

$$$$
>  <Compound>
COc1cccc(CNC(=O)[C@H]2CCCN2C(=O)[C@H]2CCCN2C(=O)C2CCCCC2)c1

>  <Cat>
inactive

$$$$
>  <Compound>
CSCCC(C(=O)NC(C)(C)C)n1c(-c2ccccc2)nc2ccccc21 (stereo not given)

>  <Cat>
inactive

$$$$

Outcome logged for "O=C(OCC(=O)c1cccs1)c1ccc([N+](=O)[O-])o1" in this assay: inactive

Outcome logged for "Cc1ccc(S(=O)(=O)N2C[C@@H]3CCCC[C@@H]3[C@@H](C)[C@H]2c2cn(Cc3ccccc3)c3ccc(F)cc23)cc1" in this assay: inactive

Outcome logged for "COc1ccc(-n2c(SCC(=O)Nc3ccc4cn[nH]c4c3)nnc2-c2cccnc2)cc1" in this assay: inactive

Outcome logged for "O=C(OCC(=O)c1cccs1)C1=COCCO1" in this assay: active

Outcome logged for "C=CC(=O)OCCOCCOCCOCCOC(=O)C=C" in this assay: active
